experiment: PSAC antagonists in infected red cells, primary screen, cell-based, P. falciparum Indochina, OD700, 18 h (AID 1157); conditions: P. falciparum Indochina infected erythrocytes, osmotic lysis OD700, 18 h; higher = more signal, called active from +8 up or from −8 down
The label depends only on z-score: Criterion met if it is at least 1, Criterion not met if it is smaller.

## Task Say whether Cc1ccc(S[C@]2(C(=O)NCCCN(C)C)CC(=O)N(Cc3cc(C(F)(F)F)cc(C(F)(F)F)c3)[C@@H]2c2ccc(CO)cc2I)cc1 shows z-score of 1 or more.
## Result Criterion not met

## Task Reported z-score reaches at least 1 for C=C[C@@H](COC(=O)OC(C)(C)C)N(Cc1ccc(OC)cc1)S(=O)(=O)c1ccc(Br)cc1 ?
## Result Criterion not met

## Task I'd appreciate it if you could say whether C[C@H]1NC(=O)[C@@]23C(=O)N[C@@H](Cc4ccccc4)C2[C@H](C)[C@@]2(C)O[C@H]2C3/C=C/C/C=C\CNC(=O)[C@@H]2CCCN2C1=O (some centres not stated) has z-score at least equal to 1.
## Result Criterion not met

## Task Quick check: does COC(=O)[C@@]1(Cc2ccc(OC)cc2)[C@@H]2C(=CC(=O)[C@H]2CC(=O)C(=O)N2CCCC2)CN1C(=O)c1ccccc1 have z-score greater than or equal to 1?
## Result Criterion met

## Task Please check the record C=CCOC(=O)[C@H]1[C@@H]2C(=O)O[C@@H](c3ccccc3)[C@@H](c3ccccc3)N2[C@@H](c2ccc(OCCOC(=O)[C@@H]3C[C@@H]4C(=O)N[C@@H](CC(C)C)C(=O)N4[C@@H]3c3ccc(O)cc3)cc2)[C@]12C(=O)Nc1ccccc12 and state if its z-score is at or above 1.
## Result Criterion met

## Task Record O=C(N1CCCCC1)[C@]1(Cc2ccccc2)N=C(c2ccc(OCCCO)cc2)O[C@@H]1c1ccccc1 ; criterion: z-score no lower than 1. Met?
## Result Criterion met
